Biological target: recombinant eIF4E (Homo sapiens (Human))
Sequence (P06730 whole entry): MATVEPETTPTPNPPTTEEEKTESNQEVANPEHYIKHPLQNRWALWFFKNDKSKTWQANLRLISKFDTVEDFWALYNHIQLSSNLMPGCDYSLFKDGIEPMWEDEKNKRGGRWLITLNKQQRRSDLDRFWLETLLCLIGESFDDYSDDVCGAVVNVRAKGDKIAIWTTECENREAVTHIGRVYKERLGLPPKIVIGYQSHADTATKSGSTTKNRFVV
Assay: Fluorescence polarization competition assay for eIF4E binding potency
Conditions: inhibition of eIF4E/EDA-m7GDP-ATTO-550 binding; calculated IC50 values, Table 4B; read-out: IC50
Below is a list of entries, each paired with its recorded pIC50 value.
pIC50 is a log-scale quantity: -log10 of the concentration expressed in molar.

[[record]]
compound = "Cc1nc2cc(C(F)(F)F)c(N3CCN(C)CC3)c(C#N)c2c(=O)n1CCSc1ccc(Cl)cc1-c1ccnc2c(C(=O)O)csc12"
assay_target = "recombinant eIF4E (Homo sapiens (Human))"
measured = 7.18

[[record]]
compound = "Cc1nc2cnc(N3CCN(C4(CC(F)(F)F)CC4)CC3)c(C#N)c2c(=O)n1CCOc1ccc(Cl)cc1-c1ccnc2c(C(=O)O)csc12"
assay_target = "recombinant eIF4E (Homo sapiens (Human))"
measured = 7.67

[[record]]
compound = "Cc1cc(-c2cc(Cl)ccc2OCCn2c(C)nc3cnc(N4CCC(O)C4)c(C#N)c3c2=O)c2sc(C)c(C(=O)O)c2n1 (stereo not drawn)"
assay_target = "recombinant eIF4E (Homo sapiens (Human))"
measured = 7.47


Proceed to the following item.
Recorded pIC50 for Cc1nc2cnc(N3CC4(C3)CN(C3CCCC3)C4)c(C#N)c2c(=O)n1CCOc1ccc(Cl)cc1-c1ccnc2c(C(=O)O)csc12 , please?
7.88
